// provenance: ChEMBL document CHEMBL5303573

methodSummary: The drug is tested on Ruminococcus lactaris strain: ATCC29176 for biotransformation. The drug concentrations were measured before and after a 12-h incubation by liquid-chromatography-coupled mass spectrometry (LC–MS)
conditionContext: 2 µM
metricName: Bacterial Biotransformation

Worked examples, 6 compounds total:
compound: C=CC[C@@H]1/C=C(\C)C[C@H](C)C[C@H](OC)[C@H]2O[C@@](O)(C(=O)C(=O)N3CCCC[C@H]3C(=O)O[C@H](/C(C)=C/[C@@H]3CC[C@@H](O)[C@H](OC)C3)[C@H](C)[C@@H](O)CC1=O)[C@H](C)C[C@@H]2OC.O
Bacterial Biotransformation: Compound metabolized
//
compound: COC(=O)[C@H]1[C@H]2C[C@@H]3c4[nH]c5cc(OC)ccc5c4CCN3C[C@H]2C[C@@H](OC(=O)c2cc(OC)c(OC)c(OC)c2)[C@@H]1OC
Bacterial Biotransformation: Compound NOT metabolized
//
compound: COCCc1ccc(OCC(O)CNC(C)C)cc1.COCCc1ccc(OCC(O)CNC(C)C)cc1.O=C(O)C(O)C(O)C(=O)O (configuration not stated) [METOPROLOL TARTRATE]
Bacterial Biotransformation: Compound NOT metabolized
//
compound: Cc1nc2n(c(=O)c1CCN1CCC(c3noc4cc(F)ccc34)CC1)CCCC2O (configuration not stated)
Bacterial Biotransformation: Compound metabolized
//
compound: COc1ccc(CCN(C)CCCC(C#N)(c2ccc(OC)c(OC)c2)C(C)C)cc1OC (configuration not stated)
Bacterial Biotransformation: Compound NOT metabolized
//
compound: O=P(O)(O)O.c1ccc(CN(CC2=NCCN2)c2ccccc2)cc1 [ANTAZOLINE PHOSPHATE]
Bacterial Biotransformation: Compound NOT metabolized

Let's switch to this compound now.
query: // Bacterial Biotransformation lookup, key: C#C[C@]1(O)CC[C@H]2[C@@H]3CCC4=Cc5oncc5C[C@]4(C)[C@H]3CC[C@@]21C
result: Compound metabolized
